Source of measurements: ChEMBL document CHEMBL4342522

Test: Clearance in dog plasma at 0.1 mg/kg, iv
Type: ADME, organism-based, Canis lupus familiaris
Please go through the items and note down their clearance.
Note: unit mL/min/kg is implicit; provide only the numeric part.

Query: Fill in the blank: the reported clearance of CCNC(=O)c1cc2c(-c3cc(S(=O)(=O)CC)ccc3Oc3c(C)cccc3C)cn(C)c(=O)c2[nH]1 is ____.
Response: 5.67

Query: For CCNC(=O)c1cc2c(-c3cc(C(C)(C)O)ccc3Oc3c(C)cc(F)cc3C)cn(C)c(=O)c2[nH]1 [ABBV-744] , what is its reported clearance?
Response: 4

----------
Test system: NCI-H1299
Experiment: Antiproliferative activity against human H1299 cells assessed as reduction in cell viability after 5 days by CellTiter-Glo assay
Format: functional, cell-based
Conditions: NCI-H1299, 120 h
property.name: pIC50
Please express pIC50 as -log10 of the molar concentration.

Query: Quick check: pIC50 of CCNC(=O)c1cc2c(-c3cc(S(=O)(=O)CC)ccc3Oc3ccccc3C(C)(C)C)cn(C)c(=O)c2[nH]1 ?
Response: 6.34

Query: If you can, please state the reported pIC50 value of CCNC(=O)c1cc2c(-c3cc(S(=O)(=O)CC)ccc3Oc3c(C)cccc3C)cn(C)c(=O)c2[nH]1 .
Response: 6.35

Query: Return reported pIC50; argument: CCNC(=O)c1cc2c(-c3cc(S(=O)(=O)CC)ccc3Oc3ccc(F)cc3F)cn(C)c(=O)c2[nH]1
Response: 6.96

Query: pIC50 for Cc1cc(F)cc(C)c1Oc1ccc(C(C)(C)O)cc1-c1cn(C)c(=O)c2[nH]c(C(=O)NC34CC(C3)C4)cc12 ?
Response: 5.96

----------
Tested on: NCI-H1299
Experiment: Antiproliferative activity against human H1299 cells assessed as reduction in cell viability after 5 days by CellTiter-Glo assay
Assay type: functional, cell-based
Conditions: NCI-H1299, 120 h
For each entry below, report its pIC50 value.
Entry type: numeric. Quantity: pIC50, the -log10 of concentration in molar units.

Query: Please state recorded pIC50 (tested on NCI-H1299) of CCNC(=O)c1cc2c(-c3cc(S(=O)(=O)CC)ccc3Oc3c(C)cccc3F)cn(C)c(=O)c2[nH]1
Response: 6.59

Query: Please state recorded pIC50 (tested on NCI-H1299) of CCNC(=O)c1cc2c(-c3cc(S(=O)(=O)CC)ccc3-c3cccc4cc[nH]c34)cn(C)c(=O)c2[nH]1
Response: 5.41

Query: Lab note: need pIC50 with NCI-H1299 for entry CCNC(=O)c1cc2c(-c3cc(C4(O)CCOCC4)ccc3Oc3c(C)cc(F)cc3C)cn(C)c(=O)c2[nH]1 , please look it up.
Response: 5.68

Query: Which measured pIC50 belongs to CCNC(=O)c1cc2c(-c3cc(C4(O)CCC4)ccc3Oc3c(C)cc(F)cc3C)cn(C)c(=O)c2[nH]1 , tested on NCI-H1299?
Response: 5.66

Query: Write down the reported pIC50 of Cc1cc(F)cc(C)c1Oc1ccc(C(C)(C)O)cc1-c1cn(C)c(=O)c2[nH]c(C(=O)NC(C)(C)C(F)(F)F)cc12 , test system: NCI-H1299.
Response: 5.59

Query: Missing value: pIC50, NCI-H1299, entry CCNC(=O)c1cc2c(-c3cc(S(=O)(=O)CC)ccc3Oc3ccccc3C)cn(C)c(=O)c2[nH]1 . Fill in?
Response: 7.02

Query: GET /values?readout=pIC50&system=NCI-H1299&item= CNC(=O)c1cc2c(-c3cc(C(C)(C)O)ccc3Oc3c(C)cc(F)cc3C)cn(C)c(=O)c2[nH]1
Response: 5.92

Query: Short answer please: pIC50, NCI-H1299, entry CCNC(=O)c1cc2c(-c3cc(C4(O)COC4)ccc3Oc3c(C)cc(F)cc3C)cn(C)c(=O)c2[nH]1
Response: 5.57

----------
Assay: Permeability in dog MDCK cells by PAMPA
Assay type: ADME, cell-based, Canis lupus familiaris
Details: read-out: permeability
property.name: Papp (×10⁻⁶ cm/s)
Dear colleague, please return just the value in ×10⁻⁶ cm/s, with no unit written.

Query: What Papp value was documented for this compound, CCNC(=O)c1cc2c(-c3cc(NS(=O)(=O)CC)ccc3Oc3c(C)cccc3C)cn(C)c(=O)c2[nH]1 ?
Response: 0.22

Query: Which Papp is listed for CCNC(=O)c1cc2c(-c3cc(S(=O)(=O)CC)ccc3-n3ccc4ccccc43)cn(C)c(=O)c2[nH]1 ?
Response: 15.9

Query: I am curious: what Papp value has been reported for CCNC(=O)c1cc2c(-c3cc(S(=O)(=O)CC)ccc3-n3ccc4cccc(C)c43)cn(C)c(=O)c2[nH]1 ?
Response: 14.7

Query: Returns the measured Papp for the input compound. Input: CCNC(=O)c1cc2c(-c3cc(S(C)(=O)=O)ccc3Nc3c(C)cccc3C)cn(C)c(=O)c2[nH]1
Response: 3.59

----------
Experiment: AUC in monkey at 0.3 mg/kg, po
Type: ADME, organism-based, Macaca mulatta
Details: rhesus monkey, in vivo
property.name: AUC
Quick note: number first, unit second.

Query: Bench note: what AUC did CCNC(=O)c1cc2c(-c3cc(C(C)(C)O)ccc3Oc3c(C)cc(F)cc3C)cn(C)c(=O)c2[nH]1 [ABBV-744] show?
Response: 14 ng·h/mL

----------
Assay: Half life in dog at 0.3 mg/kg, po
Format: ADME, organism-based, Canis lupus familiaris
Settings: in vivo
property.name: half-life (min)
Please respond with the number in min and leave the unit unwritten.

Query: Fill in: half-life of CCNC(=O)c1cc2c(-c3cc(C(C)(C)O)ccc3Oc3c(C)cc(F)cc3C)cn(C)c(=O)c2[nH]1 is ___
Response: 252

Query: Return reported half-life; argument: CCNC(=O)c1cc2c(-c3cc(S(=O)(=O)CC)ccc3Oc3c(C)cccc3C)cn(C)c(=O)c2[nH]1
Response: 18

----------
Experiment: Permeability in dog MDCK cells by PAMPA
Format: ADME, cell-based, Canis lupus familiaris
Settings: read-out: permeability
Label class 1 when Papp is at or above 2 ×10⁻⁶ cm/s; otherwise label class 0.

Query: // inclusive: Papp at least 2 ×10⁻⁶ cm/s? input: CCNC(=O)c1cc2c(-c3cc(S(=O)(=O)C4CC4)ccc3Oc3c(C)cccc3C)cn(C)c(=O)c2[nH]1
Response: class 1

Query: Threshold query (Papp >= 2 ×10⁻⁶ cm/s) on Cc1cccc(C)c1Oc1ccc(C(C)(C)O)cc1-c1cn(C)c(=O)c2[nH]c(C(=O)NC(C)(C)C)cc12
Response: class 0

Query: Does the reported Papp for CNC(=O)c1cc2c(-c3cc(C(C)(C)O)ccc3Oc3c(C)cc(F)cc3C)cn(C)c(=O)c2[nH]1 fall at or above the 2 ×10⁻⁶ cm/s mark?
Response: class 0

Query: Does the reported Papp for CCNC(=O)c1cc2c(-c3cc(NC(C)=O)ccc3Oc3c(C)cc(F)cc3C)cn(C)c(=O)c2[nH]1 fall at or above the 2 ×10⁻⁶ cm/s mark?
Response: class 0

Query: Could you verify whether the entry CCNC(=O)c1cc2c(-c3cc(S(=O)(=O)CC)ccc3Oc3ccccc3C)cn(C)c(=O)c2[nH]1 shows Papp of no less than 2 ×10⁻⁶ cm/s?
Response: class 1

Query: Is Papp at least 2 ×10⁻⁶ cm/s? Consider CCNC(=O)c1cc2c(-c3cc(S(=O)(=O)CC)ccc3Oc3c(C)cccc3Cl)cn(C)c(=O)c2[nH]1
Response: class 1

Query: Does Papp meet or surpass 2 ×10⁻⁶ cm/s for CCNC(=O)c1cc2c(-c3cc(NS(=O)(=O)CC)ccc3Oc3c(C)cc(F)cc3C)cn(C)c(=O)c2[nH]1 ?
Response: class 0

Query: Say whether CCNC(=O)c1cc2c(-c3cc(S(=O)(=O)CC)ccc3Oc3ccc(F)cc3F)cn(C)c(=O)c2[nH]1 shows Papp of 2 ×10⁻⁶ cm/s or more.
Response: class 1

Query: Has CCNC(=O)c1cc2c(-c3cc(S(=O)(=O)CC)ccc3Oc3c(C)cccc3F)cn(C)c(=O)c2[nH]1 a recorded Papp greater than or equal to 2 ×10⁻⁶ cm/s?
Response: class 1

Query: hey, is Papp for this one >= 2 ×10⁻⁶ cm/s? CCNC(=O)c1cc2c(-c3cc(C(=O)O)ccc3Oc3c(C)cccc3C)cn(C)c(=O)c2[nH]1
Response: class 0

Query: Decide: is the reported value of Papp for CCNC(=O)c1cc2c(-c3cc(S(=O)(=O)CC)ccc3Oc3ccccc3Cl)cn(C)c(=O)c2[nH]1 equal to or greater than 2 ×10⁻⁶ cm/s?
Response: class 1

Query: Hi team, for CCNC(=O)c1cc2c(-c3cc(S(=O)(=O)CC)ccc3Oc3c(C)cccc3C(F)(F)F)cn(C)c(=O)c2[nH]1 , is the recorded Papp at or above 2 ×10⁻⁶ cm/s?
Response: class 1

Query: Textbook exercise: given the entry CCNC(=O)c1cc2c(-c3cc(C4(O)CCC4)ccc3Oc3c(C)cc(F)cc3C)cn(C)c(=O)c2[nH]1 , state whether its Papp is greater than or equal to 2 ×10⁻⁶ cm/s.
Response: class 0

Query: // inclusive: Papp at least 2 ×10⁻⁶ cm/s? input: CCNC(=O)c1cc2c(-c3cc(S(=O)(=O)CC)ccc3Oc3c(C)cccc3C#N)cn(C)c(=O)c2[nH]1
Response: class 1

Query: Check the entry Cn1cc(-c2cc(S(C)(=O)=O)ccc2Oc2ccc(F)cc2F)c2cc(C(N)=O)[nH]c2c1=O : does Papp equal or exceed 2 ×10⁻⁶ cm/s?
Response: class 1
